Where do these numbers come from? They come from patent US6512097.

# tgt: T1, c-erbB-2 ECD with a Ser-Gly-His6 C-terminal fusion (UniProt P04626 23-652)
# T1 construct: extracellular domain; Expressed from CHO cells, IMAC purified; coupled to a CM5 chip, coated on plates, or biotinylated with NHS-LC-biotin; also called c-erbB-2 extracellular domain; biotinylated c-erbB-2 ECD
# procedure_details: SPR BIAcore
endpoint_name: koff (s⁻¹)
One number for each entry, in s⁻¹.

binder: C6MH3-B48 (scFv, C6ML3-9 sFv, VH CDR3 library B mutant) scFv: QVQLLQSGAELKKPGESLKISCKGSGYSFTSYWIAWVRQMPGKGLEYMGLIYPGDSDTKYSPSFQGQVTISVDKSVSTAYLQWSSLKPSDSAVYFCARHDVGYCTDPSCAKWPEYFQHWGQGTLVTVSSGGGGSGGGGSGGGGSQSVLTQPPSVSAAPGQKVTISCSGSSSNIGNNYVSWYQQLPGTAPKLLIYGHTNRPAGVPDRFSGSKSGTSASLAISGFRSEDEADYYCASWDYTLSGWVFGGGTKLTVLG
koff / s⁻¹: 0.00013
//
binder: C6MH3-D5 (scFv, C6ML3-9 sFv, VH CDR3 library D mutant) scFv: QVQLLQSGAELKKPGESLKISCKGSGYSFTSYWIAWVRQMPGKGLEYMGLIYPGDSDTKYSPSFQGQVTISVDKSVSTAYLQWSSLKPSDSAVYFCARHDVGYCSSSNCAKWPEWMQMWGQGTLVTVSSGGGGSGGGGSGGGGSQSVLTQPPSVSAAPGQKVTISCSGSSSNIGNNYVSWYQQLPGTAPKLLIYGHTNRPAGVPDRFSGSKSGTSASLAISGFRSEDEADYYCASWDYTLSGWVFGGGTKLTVLG
koff / s⁻¹: 0.00021

Let us move to another entry and its koff.
Field request: koff | item: C6MH3-B39 (scFv, C6ML3-9 sFv, VH CDR3 library B mutant) scFv: QVQLLQSGAELKKPGESLKISCKGSGYSFTSYWIAWVRQMPGKGLEYMGLIYPGDSDTKYSPSFQGQVTISVDKSVSTAYLQWSSLKPSDSAVYFCARHDVGYCTDPTCAKWPEYFQHWGQGTLVTVSSGGGGSGGGGSGGGGSQSVLTQPPSVSAAPGQKVTISCSGSSSNIGNNYVSWYQQLPGTAPKLLIYGHTNRPAGVPDRFSGSKSGTSASLAISGFRSEDEADYYCASWDYTLSGWVFGGGTKLTVLG 0.00019
